Values compiled from patent US20230287433.

# target: ICAM-1 extracellular domain (C-terminal His) (Homo sapiens, UniProt P05362 SEQ:1-453)
# Sequence (P05362 28-480): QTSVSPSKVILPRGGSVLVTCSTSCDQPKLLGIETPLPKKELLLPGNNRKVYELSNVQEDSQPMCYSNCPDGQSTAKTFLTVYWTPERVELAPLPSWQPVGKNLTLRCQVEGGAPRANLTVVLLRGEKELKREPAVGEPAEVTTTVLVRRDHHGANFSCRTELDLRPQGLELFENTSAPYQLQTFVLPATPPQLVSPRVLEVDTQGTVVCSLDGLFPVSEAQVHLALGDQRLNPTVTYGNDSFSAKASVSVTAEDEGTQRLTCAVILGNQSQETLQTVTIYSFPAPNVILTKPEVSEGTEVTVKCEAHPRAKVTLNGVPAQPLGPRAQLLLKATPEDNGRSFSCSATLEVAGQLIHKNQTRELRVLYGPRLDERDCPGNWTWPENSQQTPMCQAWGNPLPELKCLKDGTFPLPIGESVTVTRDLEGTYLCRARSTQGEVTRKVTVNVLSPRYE
# method: ITC; 37 C, potassium phosphate; 10 nM at 33 C
# assay-conditions: tags: C-terminal His6; Ray-Biotech 228-21751-2
endpoint: pKd
Expect pKd as a plain number equal to -log10 of the molar concentration.

Please report the recorded pKd for GAGCTCAGTTGTCAATCTATGACTGCTGCTGAGGAAG (ssDNA) [NasD-4.1 State 2] .
6.99
